Origin of measurements: a melting point compilation (Tetko et al.)

measurement.type: melting point

Guide cases for melting point, answers given:
>  <molecule>
O=C(O)c1cc(Cl)ccc1OC(F)F

>  <melting point>
109 to 111 °C

$$$$
>  <molecule>
O=S(=O)(c1ccc2c(c1)CCCC2)N1CCNCC1

>  <melting point>
110 to 112 °C

$$$$
>  <molecule>
O=S(=O)(Cl)c1csc(-c2cccc(Br)c2)n1

>  <melting point>
94 to 96 °C

$$$$
>  <molecule>
CC(=O)c1ccc(-c2ccc(Cl)c(Cl)c2)cc1

>  <melting point>
135 to 137 °C

$$$$
>  <molecule>
O=C(O)c1ncoc1C(F)(F)F

>  <melting point>
94 to 96 °C

$$$$
>  <molecule>
N#Cc1c(S)nc(CCc2ccccc2)c2c1CCCC2

>  <melting point>
224 to 226 °C

$$$$
>  <molecule>
O=C(O)CCOc1cccc([N+](=O)[O-])c1

>  <melting point>
111 to 113 °C

$$$$
>  <molecule>
NC(CC(=O)Nc1ccc(F)cc1)=NO

>  <melting point>
142 to 144 °C

$$$$

-- ask Record request: melting point value, item O=S1CCCNc2ccccc21 (centres undefined)
-- reply 122 to 124 °C

-- ask Record request: melting point value, item `CNc1ncc2c(n1)-c1ccccc1SC2`
-- reply 123 to 125 °C

-- ask Record request: melting point value, item `CC(C)c1nnc(S)n1C`
-- reply 139 to 141 °C

-- ask Record request: melting point value, item `CNS(=O)(=O)c1ccc(Br)s1`
-- reply 59 to 61 °C

-- ask Record request: melting point value, item `CC(C)Cc1ccc(C=CC(=O)O)cc1`
-- reply 159 to 161 °C

-- ask Record request: melting point value, item `OCc1cc(F)cc(CO)c1O`
-- reply 119 to 121 °C

---

measurement.type: melting point

>  <compound>
COc1ccccc1OCC(=O)Nc1cccc(N)c1

>  <melting point>
104 to 106 °C

$$$$
>  <compound>
c1ccc(NC2CCNC2)cc1 (centres undefined)

>  <melting point>
77 to 79 °C

$$$$
>  <compound>
COc1ccc(OCCC(=O)O)cc1

>  <melting point>
104 to 106 °C

$$$$

-- ask Record request: melting point value, item `CSc1cc(N)ccn1`
-- reply 79 to 81 °C

-- ask Record request: melting point value, item Nc1ccc(S(=O)(=O)CC2CCOC2)cc1 (centres undefined)
-- reply 118 to 120 °C

-- ask Record request: melting point value, item `O=C(O)CCSCc1nc2sc3c(c2c(=O)[nH]1)CCC3`
-- reply 227 to 229 °C

-- ask Record request: melting point value, item NC1CCN(C(=O)C2CCCCC2)C1 (centres undefined)
-- reply 72 to 74 °C

-- ask Record request: melting point value, item CCNC(C(=O)O)c1ccc(F)c(F)c1 (centres undefined)
-- reply 277 to 279 °C

-- ask Record request: melting point value, item `Nc1nncn1Cc1ccccc1`
-- reply 210 to 212 °C

-- ask Record request: melting point value, item `O=C(O)/C(=C\c1cccc(Cl)c1)c1cccs1`
-- reply 192 to 194 °C

-- ask Record request: melting point value, item `O=C(Nc1ccc(C(=O)O)c(O)c1)c1ccc(Cl)c(Cl)c1`
-- reply 272 to 274 °C

---

measurement.type: melting point

Guide cases for melting point, answers given:
>  <smiles.representation>
CC1(C)NC(=O)C1(C)C

>  <melting point>
95 to 97 °C

$$$$
>  <smiles.representation>
O=C(O)c1ccc(N2C(=O)CCC2=O)cc1

>  <melting point>
210 to 212 °C

$$$$
>  <smiles.representation>
Cc1ccc(NC(=O)C(=O)O)cc1

>  <melting point>
170 to 172 °C

$$$$
>  <smiles.representation>
O=C(O)CCCCc1ccc(Cl)cc1

>  <melting point>
64 to 66 °C

$$$$
>  <smiles.representation>
Cc1nnc(N2CCCC2)c(C(N)=O)c1C

>  <melting point>
211 to 213 °C

$$$$
>  <smiles.representation>
O=C(c1cc2ccccc2cc1O)N1CCOCC1

>  <melting point>
216 to 218 °C

$$$$

-- ask Record request: melting point value, item `CC(C)CNc1nnc(S)s1`
-- reply 155 to 157 °C

---

measurement.type: melting point

Guide cases for melting point, answers given:
>  <compound>
CNC(C)C(=O)O (centres undefined)

>  <melting point>
268 to 270 °C

$$$$
>  <compound>
N#Cc1c[nH]c(C(=O)O)c1

>  <melting point>
256 to 258 °C

$$$$
>  <compound>
COc1ccc(S(=O)(=O)Nc2ncc(Br)s2)cc1

>  <melting point>
132 to 134 °C

$$$$
>  <compound>
COC(=O)C1CCN(C(=O)c2ccc(Cl)c(Cl)c2)CC1

>  <melting point>
103 to 105 °C

$$$$
>  <compound>
Oc1ccc(C2SCCCS2)cc1

>  <melting point>
154 to 156 °C

$$$$
>  <compound>
CC1CCC(Nc2ccccn2)CC1 (centres undefined)

>  <melting point>
149 to 151 °C

$$$$
>  <compound>
O=C(O)c1cc(-c2ccncc2)on1

>  <melting point>
276 to 278 °C

$$$$
>  <compound>
NNC(=O)c1ccc2c(c1)OCCO2

>  <melting point>
142 to 144 °C

$$$$
>  <compound>
COC(=O)c1cc2c(C)c(C)ccc2[nH]1

>  <melting point>
144 to 146 °C

$$$$
>  <compound>
O=Cc1ccc(N2CCCCC2)s1

>  <melting point>
73 to 75 °C

$$$$

-- ask Record request: melting point value, item COc1cccc(C2CC2C(=O)O)c1 (centres undefined)
-- reply 90 to 92 °C

-- ask Record request: melting point value, item `Cc1nn(CCO)c(C(F)(F)F)c1C(=O)O`
-- reply 151 to 153 °C

-- ask Record request: melting point value, item `Cc1cc(CO)c(C)n1-c1ccccc1`
-- reply 77 to 79 °C

-- ask Record request: melting point value, item COc1cc(C(=O)O)c([N+](=O)[O-])cc1OCC1CCCO1 (centres undefined)
-- reply 159 to 161 °C

-- ask Record request: melting point value, item `CC(C)(C)OC(=O)NC(CO)CO`
-- reply 83 to 85 °C

-- ask Record request: melting point value, item `NC(=S)Cc1ccc(F)cc1`
-- reply 109 to 111 °C

-- ask Record request: melting point value, item `CCn1nnc2cc(C(=O)O)ccc21`
-- reply 228 to 230 °C

-- ask Record request: melting point value, item `O=C(O)c1cccnc1OCC(F)F`
-- reply 79 to 81 °C

-- ask Record request: melting point value, item `O=C1CSC(=Cc2nc3ccccc3s2)N1`
-- reply 186 to 188 °C

-- ask Record request: melting point value, item `Cc1cnc2c(C)cnn2c1N`
-- reply 239 to 241 °C

-- ask Record request: melting point value, item `NCc1nc2cc(Cl)ccc2s1`
-- reply 68 to 70 °C

-- ask Record request: melting point value, item `O=C(O)c1cn(Cc2cccnc2)nn1`
-- reply 206 to 208 °C

-- ask Record request: melting point value, item `Nc1cc(C2CCCCC2)no1`
-- reply 127 to 129 °C

-- ask Record request: melting point value, item `O=[N+]([O-])c1ccc(Cn2ccnc2)cc1`
-- reply 39 to 41 °C

-- ask Record request: melting point value, item `NS(=O)(=O)c1ccc(Cl)c(S(=O)(=O)Cl)c1`
-- reply 185 to 187 °C

-- ask Record request: melting point value, item `COc1ccc(C2=CCNC2)cc1`
-- reply 94 to 96 °C

-- ask Record request: melting point value, item `O=C(O)c1c(O)cccc1Cl`
-- reply 166 to 168 °C

-- ask Record request: melting point value, item `CCOc1ccc(OCCOc2ccc(C=CC(=O)O)cc2OCC)cc1`
-- reply 182 to 184 °C

-- ask Record request: melting point value, item `O=C(O)c1cc([N+](=O)[O-])c(Br)cc1F`
-- reply 152 to 154 °C

---

measurement.type: melting point

>  <smiles.representation>
CC1(C)NC(=O)N(CCC(=O)NN)C1=O

>  <melting point>
176 to 178 °C

$$$$
>  <smiles.representation>
CS(=O)(=O)Nc1cc(Br)ccc1F

>  <melting point>
143 to 145 °C

$$$$
>  <smiles.representation>
CCOC(=O)c1c(N)sc2c1CC(C)(C)NC2(C)C

>  <melting point>
95 to 97 °C

$$$$
>  <smiles.representation>
Cc1ccc(-c2nn(-c3ccccc3)cc2/C=C/C(=O)O)o1

>  <melting point>
238 to 240 °C

$$$$
>  <smiles.representation>
COC(=O)c1cc(I)cc(S(=O)(=O)Cl)c1

>  <melting point>
67 to 69 °C

$$$$

-- ask Record request: melting point value, item `CCc1ccc(C(=O)Nc2ccc(N)cc2Cl)s1`
-- reply 120 to 122 °C

-- ask Record request: melting point value, item `Nc1ccc(Oc2ccccn2)cc1`
-- reply 62 to 64 °C

-- ask Record request: melting point value, item `NC(=O)c1nc(Cl)ccc1N`
-- reply 164 to 166 °C

-- ask Record request: melting point value, item `Cc1nn(C)c(-n2cncn2)c1N`
-- reply 96 to 98 °C
